- method.summary: Stability in human plasma assessed as compound remaining at 50 uM at 37 degC after 60 mins by LC-MS/MS method
- Format: ADME, cell-free
- experimental.conditions: read-out: Stability
observable: remaining at 1 h, 50 µM (%)
Give the value, in units of %, as a plain number.

C[C@@H](O)[C@H]1C(=O)N2C3=C(S[C@@H]4CN[C@@H](C4)C(=O)Nc4cccc(c4)C(=O)OCCCCOC3=O)[C@H](C)[C@H]12 : 4
C[C@@H](O)[C@H]1C(=O)N2C(C(=O)OCC(F)(F)F)=C(S[C@@H]3CN[C@H](C(=O)Nc4cccc(C(=O)O)c4)C3)[C@H](C)[C@H]12 : 80

Then this compound:
response.value for `COC(=O)OCOC(=O)C1=C(S[C@@H]2CN[C@H](C(=O)Nc3cccc(C(=O)OCOC(=O)OC)c3)C2)[C@H](C)[C@@H]2[C@@H]([C@@H](C)O)C(=O)N12` (field: remaining at 1 h, 50 µM) = 0

* * *

- method.summary: AUC (0 to 8 hrs) in fasted Sprague-Dawley rat at 1 mg/kg, iv by LC-MS/MS method
- Format: ADME, organism-based
- Set-up: time < 8 hr, dose 1 mg/kg, route intravenous
- experimental.conditions: plasma
observable: AUC(0-t) at 8 h (µM·h)
Respond numerically; units are µM·h and should not be typed.

Consider `C[C@@H](O)[C@H]1C(=O)N2C(C(=O)[O-])=C(S[C@@H]3CN[C@H](C(=O)Nc4cccc(C(=O)O)c4)C3)[C@H](C)[C@H]12.O.[Na+]` . Its measured AUC(0-t) at 8 h is 7.8

* * *

- System: Rattus norvegicus
- method.summary: Oral bioavailability in fasted Sprague-Dawley rat assessed as ertapenem and monoetser metabolites level at 10 mg/kg dosed through intraduodenal route by LC-MS/MS method
- Type: ADME, organism-based
- experimental.conditions: in vivo
API: label(entry) gives yes if the entry's F is strictly smaller than 0.9%; on equality or larger values it gives no.

Consider the worked cases shown below.
C[C@@H](O)[C@H]1C(=O)N2C(C(=O)OCC(F)(F)F)=C(S[C@@H]3CN[C@H](C(=O)Nc4cccc(C(=O)OCC(F)(F)F)c4)C3)[C@H](C)[C@H]12 : no
C[C@@H](O)[C@H]1C(=O)N2C(C(=O)[O-])=C(S[C@@H]3CN[C@H](C(=O)Nc4cccc(C(=O)O)c4)C3)[C@H](C)[C@H]12.O.[Na+] : yes
C[C@@H](O)[C@H]1C(=O)N2C(C(=O)OCOC(=O)C(C)(C)C)=C(S[C@@H]3CN[C@H](C(=O)Nc4cccc(C(=O)OCOC(=O)C(C)(C)C)c4)C3)[C@H](C)[C@H]12 : yes

Turning now to a further record.
hey, is F for `CC(C)OC(=O)C1=C(S[C@@H]2CN[C@H](C(=O)Nc3cccc(C(=O)OC(C)C)c3)C2)[C@H](C)[C@@H]2[C@@H]([C@@H](C)O)C(=O)N12` lower than 0.9% or not?
yes

* * *

- method.summary: Stability in human plasma assessed as compound remaining at 50 uM at 37 degC after 60 mins by LC-MS/MS method
- Type: ADME, cell-free
- experimental.conditions: read-out: Stability
observable: remaining at 1 h, 50 µM (%)
Could you give me the number in %? Just the number is fine.

Kindly note the recorded remaining at 1 h, 50 µM for `Cc1oc(=O)oc1COC(=O)N1C[C@@H]2C[C@H]1C(=O)Nc1cccc(c1)C(=O)OC/C=C/COC(=O)C1=C(S2)[C@H](C)[C@@H]2[C@@H]([C@@H](C)O)C(=O)N12` , which is 17

According to the records, this compound `CC(C)CCC[C@@H](C)[C@H]1CC[C@H]2[C@@H]3CC=C4C[C@@H](OC(=O)COC(=O)c5cccc(NC(=O)[C@@H]6C[C@H](SC7=C(C(=O)OCC(F)(F)F)N8C(=O)[C@H]([C@@H](C)O)[C@H]8[C@H]7C)CN6)c5)CC[C@]4(C)[C@H]3CC[C@]12C` displays remaining at 1 h, 50 µM of 92

The value of remaining at 1 h, 50 µM measured for the compound `CCC(CC)C(=O)OCOC(=O)C1=C(S[C@@H]2CN[C@H](C(=O)Nc3cccc(C(=O)OCOC(=O)C(CC)CC)c3)C2)[C@H](C)[C@@H]2[C@@H]([C@@H](C)O)C(=O)N12` turned out to be 83

The value of remaining at 1 h, 50 µM measured for the compound `COC(=O)C1=C(S[C@@H]2CN[C@H](C(=O)Nc3cccc(C(=O)OC)c3)C2)[C@H](C)[C@@H]2[C@@H]([C@@H](C)O)C(=O)N12` turned out to be 0

get_value(item= `CC(C)OC(=O)OCOC(=O)C1=C(S[C@@H]2CN[C@H](C(=O)Nc3cccc(C(=O)O)c3)C2)[C@H](C)[C@@H]2[C@@H]([C@@H](C)O)C(=O)N12` , readout=remaining at 1 h, 50 µM) returns 62

Per the records, this compound ( `C[C@@H](O)[C@H]1C(=O)N2C(C(=O)OCOC(=O)OC(C)(C)C)=C(S[C@@H]3CN[C@H](C(=O)Nc4cccc(C(=O)O)c4)C3)[C@H](C)[C@H]12` ) has remaining at 1 h, 50 µM equal to 40

Field remaining at 1 h, 50 µM (entry `C[C@@H](O)[C@H]1C(=O)N2C3=C(S[C@@H]4CN[C@@H](C4)C(=O)Nc4cccc(c4)C(=O)OCOCOC3=O)[C@H](C)[C@H]12` ) reads 60

Quick note, remaining at 1 h, 50 µM for `CCOC(=O)C1=C(S[C@@H]2CN[C@H](C(=O)Nc3cccc(C(=O)OCC)c3)C2)[C@H](C)[C@@H]2[C@@H]([C@@H](C)OC(C)=O)C(=O)N12` landed at 37

Sure, the documented remaining at 1 h, 50 µM for `CC(=O)O[C@H](C)[C@H]1C(=O)N2C3=C(S[C@@H]4CN[C@@H](C4)C(=O)Nc4cccc(c4)C(=O)OCOCOC3=O)[C@H](C)[C@H]12` is 30

# remaining at 1 h, 50 µM (compound: `CC(C)C(=O)OCOC(=O)C1=C(S[C@@H]2CN[C@H](C(=O)Nc3cccc(C(=O)[O-])c3)C2)[C@H](C)[C@@H]2[C@@H]([C@@H](C)O)C(=O)N12.[Na+]` ) is 15
